Reported TGI is given for each of the following molecules.
System: MALME-3M melanoma
Assay: NCI tumour cell line growth inhibition, 48 h

As a guide, the following entries are already answered.
>>> result("O=[N+]([O-])c1cccnc1S(=O)(=O)c1ccccc1")
"23.8 µM"
>>> result("O=c1c2ccccc2nc(-c2cccc(Cl)c2)n1NC1OC(CO)C(O)C(O)C1O (centres undefined)")
"> 100 µM"
>>> result("CCOC(=O)C(Cc1ccc(N=NN(C)C)cc1)NC(=O)CC1c2ccccc2-c2ccccc21 (centres undefined)")
"> 100 µM"
>>> result("C/C(=C/CCC(C)[C@@H]1CC[C@]2(C)C3=C(CC[C@@]12C)[C@@]1(C)CCC(=O)C(C)(C)[C@@H]1CC3)C(=O)O (some centres undefined)")
"3.5 µM"
>>> result("CCCCCCCCCC1CC(=O)OC23CCCC(=O)C12O3 (centres undefined)")
"> 100 µM"
>>> result("O=C(Nc1nc(=S)[nH][nH]1)C(=O)C(c1cnc2ccc([N+](=O)[O-])cc2n1)[N+](=O)[O-] (centres undefined)")
"> 100 µM"

Give the reported TGI for COc1cc2c(cc1O)NC(=O)[C@@H]1C[C@@H](O)CN1C2=O (system: MALME-3M melanoma). > 100 µM

Give the reported TGI for CN(Cc1cnc2nc(N)nc(N)c2n1)c1ccc(C(=O)NC(CCC(=O)O)C(=O)O)c2ccccc12 (centres undefined) (system: MALME-3M melanoma). > 1000 µM

Give the reported TGI for Cc1ccc(S(=O)(=O)NC(=O)Nc2ccc(C(=O)O)cc2)cc1 (system: MALME-3M melanoma). > 100 µM

* * *

Tested on: NCI-H23 lung
Assay: NCI tumour cell line growth inhibition, 48 h; in the data active means GI50 below about 0.43 µM; inactive means the rest
# valid calls are label 1 for active, label 0 for inactive; nothing else

Take a look at these entries with their results.
>>> discrete_label("O=c1[nH]c(=S)[nH]c(O)c1/C=C1\\C=Nc2ccccc21")
"label 0"
>>> discrete_label("Cc1ccccc1Nc1cc(O)c2c(=O)cc(-c3ccccc3)oc2c1")
"label 0"
>>> discrete_label("N#Cc1cc(F)cc(Oc2ccc(S(=O)(=O)C(F)F)c3c2CC(F)(F)[C@H]3O)c1")
"label 0"
>>> discrete_label("OCCNc1nc2ccccc2c2[nH]c3ccccc3c12")
"label 0"

For COc1cc([C@@H]2c3cc4c(cc3[C@H](SC(=N)N)[C@H]3COC(=O)[C@H]23)OCO4)cc(OC)c1OC , which call appears in the assay record? label 1

* * *

Tested on: OVCAR-4 ovarian
Assay: NCI tumour cell line growth inhibition, 48 h
Reported TGI is given for each of the following molecules.

>>> result("Oc1cn(-c2ccc(Cl)cc2)nc1-c1n[nH]c(=S)n1-c1ccc(F)cc1")
"> 100 µM"
>>> result("C#Cc1cccc(NC(=O)/C=C\\C(=O)O)c1")
"> 100 µM"
>>> result("CC1(C)N=C(/C(Cl)=[N+](/[O-])C(=O)c2ccc(Cl)cc2)C(C)(C)N1O")
"68.5 µM"

What does the record list as TGI for CC(C)CNP(=O)(NCC(C)C)Oc1ccc(CC(NC(=O)OCc2ccccc2)C(=O)OCc2ccccc2)cc1 (stereo unspecified) ? 36.5 µM

What does the record list as TGI for C=CCOC(C)(C)C1=CCC(C)CC1 (stereo unspecified) ? > 100 µM
